Molecular target: PI3Kα H1047R (T47D cells) (Homo sapiens, UniProt P42336, H1047R)
Construct: endogenous in cells; host or cells: T47D cells
Sequence (P42336 whole entry H1047R): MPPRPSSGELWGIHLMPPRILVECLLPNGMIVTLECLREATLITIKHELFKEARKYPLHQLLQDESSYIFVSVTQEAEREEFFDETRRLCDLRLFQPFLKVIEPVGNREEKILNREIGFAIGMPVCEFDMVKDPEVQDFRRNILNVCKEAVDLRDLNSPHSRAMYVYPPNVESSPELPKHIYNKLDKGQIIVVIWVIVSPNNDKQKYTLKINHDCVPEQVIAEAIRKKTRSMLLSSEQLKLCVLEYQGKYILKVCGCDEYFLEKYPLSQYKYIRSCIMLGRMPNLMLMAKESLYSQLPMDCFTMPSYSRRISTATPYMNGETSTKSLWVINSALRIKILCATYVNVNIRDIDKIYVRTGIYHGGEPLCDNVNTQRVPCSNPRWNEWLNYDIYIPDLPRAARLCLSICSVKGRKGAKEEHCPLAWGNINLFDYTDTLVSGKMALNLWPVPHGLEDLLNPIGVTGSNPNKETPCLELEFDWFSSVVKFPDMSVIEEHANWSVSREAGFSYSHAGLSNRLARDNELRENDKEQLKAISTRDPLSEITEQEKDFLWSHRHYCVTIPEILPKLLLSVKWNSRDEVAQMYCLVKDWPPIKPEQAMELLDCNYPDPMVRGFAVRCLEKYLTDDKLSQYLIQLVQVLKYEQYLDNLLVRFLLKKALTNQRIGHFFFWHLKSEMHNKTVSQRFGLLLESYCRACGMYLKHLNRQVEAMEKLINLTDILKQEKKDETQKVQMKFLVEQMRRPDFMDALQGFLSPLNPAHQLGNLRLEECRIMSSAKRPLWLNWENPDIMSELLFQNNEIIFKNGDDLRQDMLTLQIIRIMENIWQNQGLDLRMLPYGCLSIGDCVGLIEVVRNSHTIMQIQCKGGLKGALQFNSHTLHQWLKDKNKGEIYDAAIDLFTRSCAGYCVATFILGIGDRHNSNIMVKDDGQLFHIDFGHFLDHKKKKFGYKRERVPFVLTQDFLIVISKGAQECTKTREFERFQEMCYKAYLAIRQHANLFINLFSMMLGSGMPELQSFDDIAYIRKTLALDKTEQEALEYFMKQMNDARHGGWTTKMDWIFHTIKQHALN
Sequence (P27986 whole entry partner): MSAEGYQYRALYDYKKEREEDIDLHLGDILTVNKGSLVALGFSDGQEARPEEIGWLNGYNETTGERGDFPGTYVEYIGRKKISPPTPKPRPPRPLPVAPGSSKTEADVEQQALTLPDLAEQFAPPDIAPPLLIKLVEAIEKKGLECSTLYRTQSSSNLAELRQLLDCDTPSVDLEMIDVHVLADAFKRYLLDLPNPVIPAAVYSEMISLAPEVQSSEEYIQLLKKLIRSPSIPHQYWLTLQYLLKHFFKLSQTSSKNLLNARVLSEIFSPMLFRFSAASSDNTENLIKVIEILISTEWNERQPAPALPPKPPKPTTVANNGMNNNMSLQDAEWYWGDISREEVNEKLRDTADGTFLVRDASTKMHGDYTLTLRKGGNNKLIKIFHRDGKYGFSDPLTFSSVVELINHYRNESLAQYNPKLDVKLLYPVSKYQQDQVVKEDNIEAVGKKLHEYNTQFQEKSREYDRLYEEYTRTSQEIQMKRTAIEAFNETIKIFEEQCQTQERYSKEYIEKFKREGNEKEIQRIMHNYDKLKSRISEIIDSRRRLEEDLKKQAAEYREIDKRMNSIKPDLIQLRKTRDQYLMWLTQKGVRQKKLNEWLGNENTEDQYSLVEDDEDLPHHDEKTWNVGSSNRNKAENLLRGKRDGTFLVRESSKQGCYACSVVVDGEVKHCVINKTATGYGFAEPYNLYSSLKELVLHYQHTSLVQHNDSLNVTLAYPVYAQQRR
Assay: PI3Kα cellular assay: pAKT HTRF in T47D cells after EGF stimulation
Type: cell-based
Details: selectivity of T47D (H1047R) over SKBR3 (WT) pAKT IC50
Measured quantity: T47D pAKT S473 HTRF IC50 (H1047R): T47D (H1047R) selectivity over SKBR3 (WT)

Cc1cc([C@@H](C)Nc2ccccc2C(=O)O)c2nc(-c3ccc(F)c(C)c3)c(C)c(=O)n2c1 [Compound 1022]
A (A denotes >20-fold)
Cc1cc(C(C)Nc2cccc3c2OCC(=O)N3)c2nc(N3CCOCC3)cc(=O)n2c1 (centres unmarked) [Compound 684]
C (C denotes ≤5-fold)
CNc1nn(C)c2ccc(-c3cc(=O)n4cc(C)cc(C(C)Nc5ccccc5C(=O)O)c4n3)cc12 (centres unmarked) [Compound 758]
A (A denotes >20-fold)
Cc1cc([C@@H](C)Nc2ccccc2-c2ccnnc2)c2nc(N3Cc4ccccc4C3)c(C3CC3)c(=O)n2c1 [Compound 847]
C (C denotes ≤5-fold)
CC1=NC(C)c2cc(-c3cc(=O)n4cc(C)cc([C@@H](C)Nc5ccccc5C(=O)O)c4n3)ccc21 (some centres unmarked) [Compound 752]
C (C denotes ≤5-fold)
Cc1cc([C@H](C)Nc2ccccc2C(=O)O)c2nc(-c3ccc(C#N)nc3)c(C)c(=O)n2c1 [Compound 976]
C (C denotes ≤5-fold)
Cc1cc([C@H](C)Nc2ccccc2C(=O)O)c2nc(N3CC4(CCNCC4)C3)c(C)c(=O)n2c1 [Compound 917]
C (C denotes ≤5-fold)
Cc1cc([C@@H](C)Nc2ccccc2C(=O)O)c2nc(N3CC4CC(F)(F)CC4C3)c(C)c(=O)n2c1 (some centres unmarked) [Compound 849]
A (A denotes >20-fold)
Cc1cc([C@H](C)Nc2ccccc2-c2ccnnc2)c2nc(N3Cc4ccccc4C3)c(C)c(=O)n2c1 [Compound 909]
C (C denotes ≤5-fold)
Cc1cc([C@H](C)Nc2ccccc2C(=O)O)c2nc(C3CCOCC3)c(C)c(=O)n2c1 [Compound 1056]
C (C denotes ≤5-fold)

# compound Cc1cc([C@H](C)Nc2ccccc2C(=O)O)c2nc(-c3ccc4c(c3)c(C(F)F)nn4C)cc(=O)n2c1 [Compound 808] ; its T47D pAKT S473 HTRF IC50 (H1047R): T47D (H1047R) selectivity over SKBR3 (WT) = C (C denotes ≤5-fold)

The reported value for Cc1cc([C@@H](C)Nc2ccccc2S(N)(=O)=O)c2nc(N3Cc4ccccc4C3)c(C)c(=O)n2c1 (single isomer, unassigned) [Compound 856] in terms of T47D pAKT S473 HTRF IC50 (H1047R): T47D (H1047R) selectivity over SKBR3 (WT) is A (A denotes >20-fold)

The reported T47D pAKT S473 HTRF IC50 (H1047R): T47D (H1047R) selectivity over SKBR3 (WT) of the compound Cc1cc(C(C)Nc2ccccc2C(=O)O)c2nc(-c3ccc4c(c3)C(C)NN4C)cc(=O)n2c1 (centres unmarked) [Compound 757] was C (C denotes ≤5-fold)
